# MEASUREMENT_PROTOCOL: OD615 S. cerevisiae growth inhibition, permissive medium, pilot counter-assay, permissive growth control for S. cerevisiae lifespan shortening project (AID 705)
# CONDITIONS: OD615, 24 h, at 10 µM, stronger effect = higher value
ASSAY_ENDPOINT: growth inhibition (%)

{"COMPOUND": "CC(=O)c1ccc(OCCCC(=O)NCC(c2ccco2)N(C)C)cc1 (stereo not drawn)", "UNITS_TEXT": "%", "TEST_RESULT": 4.54}
{"COMPOUND": "Cc1nc2sc(C(c3cccs3)N3CCN(C(=O)c4ccco4)CC3)c(O)n2n1 (stereo not drawn)", "UNITS_TEXT": "%", "TEST_RESULT": -1.15}
{"COMPOUND": "Cc1ccc(CCNC(=O)C2CCCN(S(=O)(=O)c3c(C)noc3/C=C/N(C)C)C2)cc1 (stereo not drawn)", "UNITS_TEXT": "%", "TEST_RESULT": -1.76}
{"COMPOUND": "CCOc1ccc(OCC)c(S(=O)(=O)NCCCN2CCOCC2)c1", "UNITS_TEXT": "%", "TEST_RESULT": -13.8}
{"COMPOUND": "O=C(NCc1ccccc1Cl)c1cnc2n(c1=O)CCS2", "UNITS_TEXT": "%", "TEST_RESULT": 3.67}
{"COMPOUND": "COc1ccccc1N1C(=O)C2CC=CC(C)C2C1=O (stereo not drawn)", "UNITS_TEXT": "%", "TEST_RESULT": -0.615}
{"COMPOUND": "COc1cccc(C2CC(c3ccc(Cl)cc3)Nc3nc(N)nn32)c1 (stereo not drawn)", "UNITS_TEXT": "%", "TEST_RESULT": 4.02}
{"COMPOUND": "CCOC(=O)N1CCN(S(=O)(=O)c2cccc3nonc23)CC1", "UNITS_TEXT": "%", "TEST_RESULT": -9.77}
{"COMPOUND": "O=S(=O)(c1cccs1)N1CCCc2ccccc21", "UNITS_TEXT": "%", "TEST_RESULT": -13.1}
{"COMPOUND": "O=C(Nc1ncc(Br)s1)C(Cc1ccccc1)n1cccc1 (stereo not drawn)", "UNITS_TEXT": "%", "TEST_RESULT": -17.7}
{"COMPOUND": "Cc1cc2ccccc2n1CCNC(=O)c1cccs1", "UNITS_TEXT": "%", "TEST_RESULT": 0.02}
{"COMPOUND": "Cc1cccc(Cn2c(CN3CCN(Cc4ccccc4)CC3)nc3c2c(=O)[nH]c(=O)n3C)c1", "UNITS_TEXT": "%", "TEST_RESULT": -14.3}
{"COMPOUND": "COc1ccc(NC(=O)[C@H](CCS(C)(=O)=O)N2Cc3ccccc3C2=O)c(OC)c1", "UNITS_TEXT": "%", "TEST_RESULT": -0.525}
{"COMPOUND": "CCCc1cc(C(=O)NC2CCCC2)no1", "UNITS_TEXT": "%", "TEST_RESULT": -11.7}
{"COMPOUND": "COc1ccc(N2Cc3cccc(C(=O)N4CCN(C(=O)c5ccco5)CC4)c3C2=O)cc1", "UNITS_TEXT": "%", "TEST_RESULT": 3.88}
{"COMPOUND": "Cc1onc(-c2ccccc2Cl)c1C(=O)NCc1ccc2c(c1)cc(C)n2C", "UNITS_TEXT": "%", "TEST_RESULT": -6.07}
{"COMPOUND": "COc1ccc(S(=O)(=O)NCC2CCC(C(=O)N3CCC4(CC3)OCCO4)CC2)cc1 (stereo not drawn)", "UNITS_TEXT": "%", "TEST_RESULT": -5.13}
{"COMPOUND": "O=C1CC(c2ccccc2)CN1S(=O)(=O)c1ccccc1 (stereo not drawn)", "UNITS_TEXT": "%", "TEST_RESULT": -1.7}
{"COMPOUND": "COc1ccccc1Nc1cc(C(=O)NCCCN2CCOCC2)c2ccccc2n1", "UNITS_TEXT": "%", "TEST_RESULT": -7.99}
{"COMPOUND": "O=C(C1CC1)N1CCc2cc(Br)cc(S(=O)(=O)NCc3ccc4c(c3)OCO4)c21", "UNITS_TEXT": "%", "TEST_RESULT": -4.48}
{"COMPOUND": "CC1Cc2nc(SCC(=O)N3CCCC3)n(C)c(=O)c2S1 (stereo not drawn)", "UNITS_TEXT": "%", "TEST_RESULT": -3.58}
{"COMPOUND": "Cn1c(=O)[nH]c(=O)c2c1nc(N1CCCCCC1)n2CCSc1nc2ccccc2o1", "UNITS_TEXT": "%", "TEST_RESULT": -8.05}
{"COMPOUND": "COc1cccc(-c2nc(CS(=O)(=O)CC(=O)NCCC(C)C)c(C)o2)c1", "UNITS_TEXT": "%", "TEST_RESULT": 3.72}
